# target.desc: canine IL-31RA expressed on HEK-Blue STAT3 canine IL-31R reporter cells (with canine OSMR) (canine)
# assay.method.text: cell-based or functional assay
Below is a list of entries, each paired with its recorded Mean IC50 (nM) (n = 3), HEK-Blue cell-based SEAP assay value.
readout.name: Mean IC50 (nM) (n = 3), HEK-Blue cell-based SEAP assay

binder	unit.tag	reported.value
8D3 chimeric canine IgGB antibody (antibody, V domains shown, also called chimeric 8D3) VH: EVQLQQSGAELVKPGASVKLSCTASGFNIKDSFIHWLKQRPEQGLEWIGRIDPANGNTEYDPNFQGKDTITADTSSNTAYLQVSSLTSEDTAVYYCARYYYGNSHFDCWGQGTTLTVSS VL: RIVMNQTPKFLPISAGDRVIITCKASQSVTNDVTWYQQKPGQSPKVLIHYASNRYTGVPDRFTGSGYGTDFTFTISTVQAEDLAVYFCQQDYSSPFTFGSGTKLEIK	nM	0.43
8D3-VH-Lv2/8D3-VL-G caninized antibody (antibody, V domains shown) VH: EVTLQESGPGLVKPSQTLSLTCVASGFSIKSSFIHWLRQRPGRGLEWIGRIDPLQGATEYNPVFQGRLSITADTAKNQVSLQLSSMTTEDTAVYYCARYHYAQSHFDAWGQGTLVTVSS VL: RIVMTQSPGSLAGSVGESVSINCKSSQSVTNDLTWYQQKPGEAPKVLIHYASQRYPGVPARFSGSGYGTDFTLTINNLQAEDVGDYFCQQDYASPFTFGQGTKLEIK	nM	0.41
8D3-VH-L/8D3-VL-G caninized antibody (antibody, V domains shown) VH: EVTLQESGPGLVKPSQTLSLTCVASGFSIKSSFIHWLRQRPGRGLEWIGRIDPAFGATEYNPAFQGRFSITADTAKNQASLQLSSMTTEDSAVYYCARYHYAASHFDAWGQGTLVTVSS VL: RIVMTQSPGSLAGSVGESVSINCKSSQSVTNDLTWYQQKPGEAPKVLIHYASQRYPGVPARFSGSGYGTDFTLTINNLQAEDVGDYFCQQDYASPFTFGQGTKLEIK	nM	0.44
8D3-VH-L/8D3-VL-Ev2 caninized antibody (antibody, V domains shown) VH: EVTLQESGPGLVKPSQTLSLTCVASGFSIKSSFIHWLRQRPGRGLEWIGRIDPAFGATEYNPAFQGRFSITADTAKNQASLQLSSMTTEDSAVYYCARYHYAASHFDAWGQGTLVTVSS VL: RIVMTQSPGSLAGSVGESVSINCKSSQSVTNDVTWYQQKPGEAPKVLIHYASQRYSGVPARFSGSGYGTDFTLTINNLQAEDVGDYFCQQDYASPFTFGQGTKLEIK	nM	0.41
8D3-VH-518/8D3-VL-Ev2 caninized antibody (antibody, V domains shown) VH: VTLQESGPGLVKPSQTLSLTCVASGFSIKDSFIHWLRQRPGRGLEWIGYIDPLQGNTEYDPVFQGRLSITADTAKNQVSLQLSSMTTEDTAVYYCARYYYARSHFDAWGQGTLVTVSS VL: RIVMTQSPGSLAGSVGESVSINCKSSQSVTNDVTWYQQKPGEAPKVLIHYASQRYSGVPARFSGSGYGTDFTLTINNLQAEDVGDYFCQQDYASPFTFGQGTKLEIK	nM	0.57
